pKd by entry:
system: Nucleic Acid; test: Binding affinity to HIV TAR RNA by electrophoretic mobility shift assay in presence of Escherichia coli tRNA; assay type: nucleic-acid assay, Human immunodeficiency virus
// pKd is dimensionless: -log10 of concentration (M)

Some entries whose results are on file:
Q: Any idea what its pKd is? The compound is CC(=O)N[C@@H](Cc1ccc(O)cc1)C(=O)NCC(=O)N[C@@H](CCCNC(=N)N)C(=O)N[C@@H](CCCCN)C(=O)N[C@@H](CCCCN)C(=O)N[C@@H](CCCNC(=N)N)C(=O)N[C@@H](CCCNC(=N)N(C)C)C(=O)N[C@@H](CCC(N)=O)C(=O)N[C@@H](CCCNC(=N)N)C(=O)N[C@@H](CCCNC(=N)N)C(=O)N[C@@H](CCCNC(=N)N)C(N)=O
A: 6.06

Q: Any idea what its pKd is? The compound is CC(=O)N[C@@H](Cc1ccc(O)cc1)C(=O)NCC(=O)N[C@@H](CCCNC(=N)N)C(=O)N[C@@H](CCCCN)C(=O)N[C@@H](CCCCN)C(=O)N[C@@H](CCCNC(=N)N)C(=O)N[C@@H](CCCNC(=N)N)C(=O)N[C@@H](CCC(N)=O)C(=O)N[C@@H](CCCNC(=N)N)C(=O)N[C@@H](CCCNC(=N)N(C)C)C(=O)N[C@@H](CCCNC(=N)N)C(N)=O
A: 6.39

Q: Any idea what its pKd is? The compound is CNC(=N)NCCC[C@H](NC(=O)[C@H](CCCCN)NC(=O)[C@H](CCCCN)NC(=O)[C@H](CCCNC(=N)N)NC(=O)CNC(=O)[C@H](Cc1ccc(O)cc1)NC(C)=O)C(=O)N[C@@H](CCCNC(=N)N)C(=O)N[C@@H](CCC(N)=O)C(=O)N[C@@H](CCCNC(=N)N)C(=O)N[C@@H](CCCNC(=N)N)C(=O)N[C@@H](CCCNC(=N)N)C(N)=O
A: 6.51

Q: Any idea what its pKd is? The compound is C/N=C(\NC)NCCC[C@H](NC(=O)[C@H](CCCCN)NC(=O)[C@H](CCCCN)NC(=O)[C@H](CCCNC(=N)N)NC(=O)CNC(=O)[C@H](Cc1ccc(O)cc1)NC(C)=O)C(=O)N[C@@H](CCCNC(=N)N)C(=O)N[C@@H](CCC(N)=O)C(=O)N[C@@H](CCCNC(=N)N)C(=O)N[C@@H](CCCNC(=N)N)C(=O)N[C@@H](CCCNC(=N)N)C(N)=O
A: 6.48

Q: Any idea what its pKd is? The compound is CC(=O)N[C@@H](Cc1ccc(O)cc1)C(=O)NCC(=O)N[C@@H](CCCNC(=N)N)C(=O)N[C@@H](CCCCN)C(=O)N[C@@H](CCCCN)C(=O)N[C@@H](CCCNC(=N)N(C)C)C(=O)N[C@@H](CCCNC(=N)N)C(=O)N[C@@H](CCC(N)=O)C(=O)N[C@@H](CCCNC(=N)N)C(=O)N[C@@H](CCCNC(=N)N)C(=O)N[C@@H](CCCNC(=N)N)C(N)=O
A: 6.41

// below: pKd requested for another compound
Q: Any idea what its pKd is? The compound is CC(=O)N[C@@H](Cc1ccc(O)cc1)C(=O)NCC(=O)N[C@@H](CCCNC(=N)N)C(=O)N[C@@H](CCCCN)C(=O)N[C@@H](CCCCN)C(=O)N[C@@H](CCCNC(=N)N)C(=O)N[C@@H](CCCNC(=N)N)C(=O)N[C@@H](CCC(N)=O)C(=O)N[C@@H](CCCNC(=N)N)C(=O)N[C@@H](CCCNC(=N)N)C(=O)N[C@@H](CCCNC(=N)N)C(N)=O
A: 6.59
